# measured_on: BRAF (Homo sapiens)
# Construct: purchased Eurofins Genomics KK; (BRAF); Thermo Fisher Scientific Inc. (MEK1)
# Sequence (P15056 417-766 limits assumed): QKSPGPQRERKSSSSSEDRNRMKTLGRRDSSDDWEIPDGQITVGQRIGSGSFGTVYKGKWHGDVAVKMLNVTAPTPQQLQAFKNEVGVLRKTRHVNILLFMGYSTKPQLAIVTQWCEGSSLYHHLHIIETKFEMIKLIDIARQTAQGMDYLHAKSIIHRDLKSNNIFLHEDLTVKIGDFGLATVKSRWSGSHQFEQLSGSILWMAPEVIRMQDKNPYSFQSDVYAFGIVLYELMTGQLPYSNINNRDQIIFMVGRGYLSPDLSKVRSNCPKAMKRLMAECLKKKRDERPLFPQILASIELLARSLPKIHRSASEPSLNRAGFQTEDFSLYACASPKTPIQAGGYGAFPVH
# test_protocol: BRAF-inhibiting activity, time-resolved fluorescence-fluorescence resonance energy transfer assay
# Type: biochemical
# experimental_context: read-out: BRAF IC50; Table 3
Known IC50 of a selection of molecules

[
  {
    "molecule": "NC(=O)c1cc(Cc2cccc(NS(=O)(=O)CCCF)c2F)c(F)c(F)c1Nc1ccc(I)cc1F [Compound E-15]",
    "IC50": "4 nM"
  },
  {
    "molecule": "CCNS(=O)(=O)Nc1nccc(Cc2cc(C(N)=O)c(Nc3ccc(I)cc3F)c(F)c2F)c1F [Compound A-40]",
    "IC50": "2 nM"
  },
  {
    "molecule": "CCCS(=O)(=O)Nc1nccc(Cc2cc(C(N)=O)c(Nc3ccc(I)cc3F)c(F)c2F)c1F [Compound B-8]",
    "IC50": "7 nM"
  },
  {
    "molecule": "COCC(C)(C)NS(=O)(=O)Nc1nccc(Cc2cc(C(N)=O)c(Nc3ccc(I)cc3F)c(F)c2F)c1F [Compound A-24]",
    "IC50": "3 nM"
  }
]

###

Collected pIC50 values appear next to each entry.
# measured_on: MEK1 (Homo sapiens, UniProt Q02750)
# Construct: purchased Thermo Fisher Scientific Inc. (MEK1, CRAF); Carna Biosciences, Inc. (ERK2)
# Sequence (Q02750 whole entry): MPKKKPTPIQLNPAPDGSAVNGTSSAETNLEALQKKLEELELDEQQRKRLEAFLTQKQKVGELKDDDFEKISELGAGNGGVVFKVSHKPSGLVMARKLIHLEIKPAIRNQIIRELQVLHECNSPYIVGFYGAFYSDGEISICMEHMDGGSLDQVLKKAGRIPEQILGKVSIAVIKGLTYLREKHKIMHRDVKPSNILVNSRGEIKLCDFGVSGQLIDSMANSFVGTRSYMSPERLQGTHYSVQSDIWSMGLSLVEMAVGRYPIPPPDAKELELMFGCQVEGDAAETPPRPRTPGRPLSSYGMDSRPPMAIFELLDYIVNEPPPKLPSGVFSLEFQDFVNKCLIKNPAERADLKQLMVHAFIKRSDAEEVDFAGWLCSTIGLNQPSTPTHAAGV
# test_protocol: MEK1-inhibiting activity, fluorescent polarization method (CRAF/MEK1/ERK2 cascade, IMAP)
# Format: biochemical
# experimental_context: Table 3; read-out: MEK1 IC50
pIC50: −log10 of the molar value.
value_type: pIC50

[
  {
    "cpd_smiles": "NC(=O)c1cc(Cc2ccnc(NS(=O)(=O)NCC3CC3)c2F)c(F)c(F)c1Nc1ccc(I)cc1F",
    "measured_on": "MEK1 (Homo sapiens, UniProt Q02750)",
    "assay_result": 7.13
  },
  {
    "cpd_smiles": "NC(=O)c1cc(Cc2cccc(NS(=O)(=O)C3CCOCC3)c2F)c(F)c(F)c1Nc1ccc(I)cc1F",
    "measured_on": "MEK1 (Homo sapiens, UniProt Q02750)",
    "assay_result": 7.21
  },
  {
    "cpd_smiles": "CONC(=O)c1cc(Cc2cccc(NS(=O)(=O)C3(C)CC3)c2F)c(=O)n(C)c1Nc1ccc(I)cc1F",
    "measured_on": "MEK1 (Homo sapiens, UniProt Q02750)",
    "assay_result": 7.51
  }
]

###

# test_protocol: Human liver microsome stability
# Assay type: in vitro ADME
# experimental_context: human liver microsomes, pH 7.4

[
  {
    "compound": "Cn1c(Nc2ccc(I)cc2F)c(C(=O)NC2CC2)cc(Cc2cccc(NS(=O)(=O)C3(C)CC3)c2F)c1=O [Compound K-11]",
    "unit_of_measure": "µL/min/mg",
    "microsomal CLint at 0.99 µM": 437
  },
  {
    "compound": "CNS(=O)(=O)Nc1nccc(Cc2cc(C(=O)NOC)c(Nc3ccc(Cl)cc3F)c(F)c2F)c1F [Compound G-4]",
    "unit_of_measure": "µL/min/mg",
    "microsomal CLint at 0.99 µM": 26
  },
  {
    "compound": "CNS(=O)(=O)Nc1nccc(Cc2cc(C(=O)NOCCOC)c(Nc3ccc(I)cc3F)c(F)c2F)c1F [Compound B-2]",
    "unit_of_measure": "µL/min/mg",
    "microsomal CLint at 0.99 µM": 53
  }
]
